- Test system: S. pneumoniae D39V;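 note: OD595 on entry to stationary phase over no-drug wells; at most 1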
- Test protocol: fitness (endpoint OD595 vs no drug) (fraction); higher = more growth
- Condition info: first compound 2 µg/mL; partner 0.5 µg/mL; one replicate
Please provide measured fitness for the entries that follow.

Sample answers from the record:
Compound | Value reported
Cc1cc(NS(=O)(=O)c2ccc(N)cc2)no1 [Sulfamethoxazol] + Cn1nnc(-c2ccc(-c3ccc(N4C[C@H](CO)OC4=O)cc3F)cn2)n1 [Tedizolid] | 0.548
Cc1cc(NS(=O)(=O)c2ccc(N)cc2)no1 [Sulfamethoxazol] + CN[C@H](CC(C)C)C(=O)N[C@H]1C(=O)N[C@@H](CC(N)=O)C(=O)N[C@H]2C(=O)N[C@H]3C(=O)N[C@H](C(=O)N[C@H](C(=O)O)c4cc(O)cc(O)c4-c4cc3ccc4O)[C@H](O)c3ccc(c(Cl)c3)Oc3cc2cc(c3O[C@@H]2O[C@H](CO)[C@@H](O)[C@H](O)[C@H]2O[C@H]2C[C@](C)(N)[C@H](O)[C@H](C)O2)Oc2ccc(cc2Cl)[C@H]1O [Vancomycin] | 0.0591
O=C(O)[C@H]1/C(=C/CO)O[C@@H]2CC(=O)N21 [Clavulanic acid] + CC1=C(C(=O)O)N2C(=O)[C@@H](NC(=O)[C@H](N)c3ccccc3)[C@H]2SC1 | 0.765

Incoming: Please report the recorded fitness for CC1=C(C(=O)O)N2C(=O)[C@@H](NC(=O)[C@H](N)c3ccccc3)[C@H]2SC1 [Cephalexin] + CC1=C\[C@@H](O)CC(=O)Cc2nc(co2)C(=O)N2CCC=C2C(=O)O[C@H](C(C)C)[C@H](C)/C=C/C(=O)NC\C=C\1 .
Outgoing: 0.316
